Origin of values: the nanobody polyreactivity screen of Harvey et al. (2022)

TEST SUMMARY: yeast display, Sf9 membrane polyspecificity reagent, FACS + sequencing; frameworks hold sequencing errors
PROPERTY MEASURED: polyreactivity (PSR sort gate)

SEQ STRING: QVQLLETGGGLVQAGGSLRLSCAPSGSIFDSYAMGWYRQAPGKERELVATINTSGGSTYYADSVKGRFTIHDNAKNTVYLQMNSLKPEDTAVYYCNAGRWDYWQNNFGDYGYWGQGTQVTVSS
PROPERTY MEASURED: polyreactivity (PSR sort gate)
RESULT: low polyreactivity
//
SEQ STRING: QVQLVESGGGLVQAGGSLRLSCAASGFTFARYTMGWYRQAPGKERELVAAISSRGSSTYYADSVKGRFTISRDNAKNTVYLQMNSLKRVDTAVYYCAAPPRYGYDYWGHGTQVTVSS
PROPERTY MEASURED: polyreactivity (PSR sort gate)
RESULT: high polyreactivity
//
SEQ STRING: QVQLVESGGGLVQAGGSLRLSCAASGRIFRYYAMGWYRQAPGKERELVAAISSSGGSTYYADSVKGRFTISRDNAKNTVYLQMNSLKPEDTAVYYCNTVGSVGKKRDYWGQGTQVTVSS
PROPERTY MEASURED: polyreactivity (PSR sort gate)
RESULT: high polyreactivity
//
SEQ STRING: QVQLVESGGGLVQAGGSLRLSCAASGSTFSRYAMGWYRQAPGKERELVAAISWGGNTYYADSVKGRFTISRDNAKNTVYLQMNSLKPEDTAVYYCNRYTKLYNTMDYWGQGTQVTVSS
PROPERTY MEASURED: polyreactivity (PSR sort gate)
RESULT: high polyreactivity

Proceed to the following item.
May I ask what polyreactivity (PSR sort gate) has been recorded for QVQLVESGGGLVQAGGSLRLSCAASVRTFLYNAMGWYRQAPGKERELVASITTSGGSTYYADSVKGRFTISRDNAKNTVYLQMNSLKPEDTAVYYCAAGLPKWYDYGRLVKYNYWGQGTQVTVSS ? low polyreactivity

* * *

TEST SUMMARY: yeast display, Sf9 membrane polyspecificity reagent, FACS + sequencing; frameworks hold sequencing errors
PROPERTY MEASURED: polyreactivity (PSR sort gate)

The examples below pair each entry with its known result.
SEQ STRING: QVQLVESGGGLVQAGGSLRLSCAASGSNFGSYTMGWSRQAPGKERELVAAISLGGGSTYYADSVKGRFTISRDNAKNTVYLQMNSLKPEDTAVYYCAAGFTDPYDYWGQGTQVTVSS
RESULT: low polyreactivity
--
SEQ STRING: QVQLVESGGGLVQAGGSLRLSCAASGSTFYVNAMGWYRQAPGKERELVAVISTGGSTYYADSVKGRFTISRDNAKNTVYLQMNSLKPEDTAVYYCAKRDLPDRSGTPNVIPFDYWGQGSQVTVSS
RESULT: low polyreactivity
--
SEQ STRING: QVQLVESGGGLVQAGGSLRLSCAASGFTFSTYAMGWYRQAPGKERELVAAISSGDSTYADSVKGRFTISRDNAKNTVYLQMNSLKPEDTAVYYCAAYVSVPYRNYYYWGQGTQVTVSS
RESULT: high polyreactivity
--
SEQ STRING: QVQLVESGGGLVQAGGSLRLSCAASGITFAYYVMGWYRQAPGKERELVAAISRSGSTYYADSVKGRFTISRDNAKNTVYLQMNSLKPEDTAVYYCAVLYIRWYTYEYWGQGTQVTVSS
RESULT: high polyreactivity

May I ask what polyreactivity (PSR sort gate) has been recorded for QVQLVESGGGLVQAGGSLRLSCAASGRTFRRNAMGWYRQAPGKEWELVAAISKSGGRTYYADSVKGRFTISRDNAKNTVYLQMNSLKPEDTAVYYCAARGYGYIPDNGDYDYWGQGTQVTVSS ? high polyreactivity

Try this sequence too: QVQLVESGGGLVQAGGSLRLSCAASGRICDYNVMGWYRQAPGKERELVADITSSGGSTYYADSVKGRFTISRDNAKNTVYLQMNSLKPEDTAVYYCYISYFTFYDDFYYWGQGTQVTVSS low polyreactivity

Try this sequence too: QVQLVESGGGLVQAGGSLRLSCAASGRIFTRYAMGWYRQAPGKERELVAVITRSGGSTYYADSVKGRFTISRDNAKNNVDLQMNSLKPEDTAVYYCAAKYYGEMYYWGQGTQVTVSS low polyreactivity

Try this sequence too: QVQLVEAGGGLVQAGGSLRLSCGASGFTFVYYAMGWYRQAPGKERELVAAISRSGGSTYYADSVKGRFTISRDNAKNTVYVQMNSLKPEDTAVYYCAARKNYGSRLSYEYWGQGTQVTVSS high polyreactivity

Try this sequence too: QVQLVESGGGLVQAGGSLRLSCAASGRIFDYNAMRRYRQAPGKERELVAAINSGGSTYADSVKGRFTISRDNAKNTVYLQMNSLKPEDTGVYDCAKSLGQTVWEYDSWGQGTQVTVSS low polyreactivity

Try this sequence too: QVQLVESGGGLVQAGGSLRLSCAASGIIFGGYDMGWYRQAPGKERELVAGIRSGGSTYYADSVKGRFTISRDNAKNTVYLQMNSLKPEDTAVYYCAADSYTEVDYWGQGSQVTVSS low polyreactivity

Try this sequence too: QVQLVESGGGLVQAGGSLRLSCAASGVTFSLNTMGWYRQSPGKERELVAAINSGDSTYADSVKGRFTISRDNAKNTVYVQMNSLKPEDTAVYYCTADPDWWYPYNYWGQGTQVTVSS low polyreactivity
